biological target: cGMP-specific 3',5'-cyclic phosphodiesterase (Homo sapiens, UniProt O76074); assay: Inhibition of human recombinant PDE5 at 100 uM after 1.5 hrs by fluorescent polarization assay
Kindly apply the following: Fulfilled if Inhibition is less than 90%, Not fulfilled in every other case.

# mol, qualitative-label
rows = [
    ("CCN1C(=O)[C@H]2Cc3c([nH]c4ccccc34)[C@H](c3ccccc3Br)N2C1=S", "Fulfilled"),
    ("CN1CC(=O)N2[C@H](c3ccccc3Br)c3[nH]c4ccccc4c3C[C@H]2C1=O", "Not fulfilled"),
    ("CCCCN1CC(=O)N2[C@H](c3ccccc3Br)c3[nH]c4ccccc4c3C[C@@H]2C1=O", "Not fulfilled"),
    ("CCCCN1CC(=O)N2[C@@H](c3ccccc3Br)c3[nH]c4ccccc4c3C[C@H]2C1=O", "Fulfilled"),
    ("COC(=O)[C@H]1Cc2c([nH]c3ccccc23)[C@@H](c2ccccc2Br)N1", "Fulfilled"),
]
